# System: 266 human PDZ domains (PDZome)
# method: Holdup assay (chromatographic retention, PDZome-binding profile, BI)
# Design: key: binding intensity: 0.00 = no binding, 1.00 = maximal binding
# study-conditions: PDZ domain PDZD2-1
*1 amine or outer side, *2 acyl side, *3 side chain or, on linkers, in order; H or OH if unused. Where a SMILES comes first, the peptide text is derived from it. The star is where a group is joined. X1 = O=C(CCCC[C@@H]1SC[C@@H]2NC(=O)N[C@@H]21)NCCCOCCOCCOCCCN*; Suc = O=C(CCC(=O)[*:2])[*:1]
The reader will find reported BI values listed item by item below.
A bare number is all that is needed in reply.

Field: example entries. Status: answers known.
>>> value("CC[C@H](C)[C@H](NC(=O)[C@H](CCC(N)=O)NC(=O)[C@@H](NC(=O)[C@H](Cc1c[nH]cn1)NC(=O)[C@H](CCC(N)=O)NC(=O)[C@H](CC(=O)O)NC(=O)[C@H](CCC(=O)O)NC(=O)[C@H](CC(=O)O)NC(=O)CCC(=O)NCCCOCCOCCOCCCNC(=O)CCCC[C@@H]1SC[C@@H]2NC(=O)N[C@@H]21)[C@@H](C)O)C(=O)N[C@H](C(=O)N[C@@H](CCCCN)C(=O)N[C@H](C(=O)O)C(C)C)[C@@H](C)O [PTEN_11]")
-0.006
>>> value("CC[C@H](C)[C@H](NC(=O)[C@H](CCC(N)=O)NC(=O)[C@@H](NC(=O)[C@H](Cc1c[nH]cn1)NC(=O)[C@H](CCC(N)=O)NC(=O)[C@H](CC(=O)O)NC(=O)[C@H](CCC(=O)O)NC(=O)[C@H](CC(=O)O)NC(=O)CCC(=O)NCCCOCCOCCOCCCNC(=O)CCCC[C@@H]1SC[C@@H]2NC(=O)N[C@@H]21)[C@@H](C)O)C(=O)N[C@H](C(=O)N[C@@H](CCCNC(=N)N)C(=O)N[C@H](C(=O)O)C(C)C)[C@@H](C)O [PTEN_KR] ({X1-Suc}-DEDQHTQITRV-OH)")
-0.056
>>> value("CC[C@H](C)[C@H](NC(=O)[C@H](CCC(N)=O)NC(=O)[C@@H](NC(=O)[C@H](Cc1c[nH]cn1)NC(=O)[C@H](CCC(N)=O)NC(=O)[C@H](CC(=O)O)NC(=O)[C@H](CCC(=O)O)NC(=O)[C@H](CC(=O)O)NC(=O)CCC(=O)NCCCOCCOCCOCCCNC(=O)CCCC[C@@H]1SC[C@@H]2NC(=O)N[C@@H]21)[C@@H](C)O)C(=O)N[C@H](C(=O)N[C@@H](CCCCNC(C)=O)C(=O)N[C@H](C(=O)O)C(C)C)[C@@H](C)O [PTEN_Ac]")
-0.095

The recorded BI for CC[C@H](C)[C@H](NC(=O)[C@H](CCC(N)=O)NC(=O)[C@@H](NC(=O)[C@H](Cc1c[nH]cn1)NC(=O)[C@H](CCC(N)=O)NC(=O)[C@H](CC(=O)O)NC(=O)[C@H](CCC(=O)O)NC(=O)[C@H](CC(=O)O)NC(=O)[C@H](Cc1ccccc1)NC(=O)[C@@H]1CCCN1C(=O)CCC(=O)NCCCOCCOCCOCCCNC(=O)CCCC[C@@H]1SC[C@@H]2NC(=O)N[C@@H]21)[C@@H](C)O)C(=O)N[C@H](C(=O)N[C@@H](CCCCN)C(=O)N[C@H](C(=O)O)C(C)C)[C@@H](C)O [PTEN_13] ({X1-Suc}-PFDEDQHTQITKV-OH) is -0.006

###

# System: GRIP1-4
# method: Holdup assay, GRIP1-4
# Assay type: binding, human
measurement-name: BI
A bare number is all that is needed in reply.

# BI measured on GRIP1-4 for item CC[C@H](C)[C@H](NC(=O)[C@H](CCC(N)=O)NC(=O)[C@@H](NC(=O)[C@H](Cc1c[nH]cn1)NC(=O)[C@H](CCC(N)=O)NC(=O)[C@H](CC(=O)O)NC(=O)[C@H](CCC(=O)O)NC(=O)[C@H](CC(=O)O)NC(=O)CCC(=O)NCCCOCCOCCOCCCNC(=O)CCCC[C@@H]1SC[C@@H]2NC(=O)N[C@@H]21)[C@@H](C)O)C(=O)N[C@H](C(=O)N[C@@H](CCCCN)C(=O)N[C@H](C(=O)O)C(C)C)[C@@H](C)O [PTEN_11] = 0.028

###

# Test system: 266 human PDZ domains (PDZome)
# method: Holdup assay (chromatographic retention, PDZome-binding profile, BI)
# Design: key: binding intensity: 0.00 = no binding, 1.00 = maximal binding
# study-conditions: PDZ domain PDZD7-3
*1 amine or outer side, *2 acyl side, *3 side chain or, on linkers, in order; H or OH if unused. Where a SMILES comes first, the peptide text is derived from it. The star is where a group is joined. X1 = O=C(CCCC[C@@H]1SC[C@@H]2NC(=O)N[C@@H]21)NCCCOCCOCCOCCCN*; Suc = O=C(CCC(=O)[*:2])[*:1]
measurement-name: BI
A bare number is all that is needed in reply.

>>> value("CC[C@H](C)[C@H](NC(=O)[C@H](CCC(N)=O)NC(=O)[C@@H](NC(=O)[C@H](Cc1c[nH]cn1)NC(=O)[C@H](CCC(N)=O)NC(=O)[C@H](CC(=O)O)NC(=O)[C@H](CCC(=O)O)NC(=O)[C@H](CC(=O)O)NC(=O)[C@H](Cc1ccccc1)NC(=O)[C@@H]1CCCN1C(=O)CCC(=O)NCCCOCCOCCOCCCNC(=O)CCCC[C@@H]1SC[C@@H]2NC(=O)N[C@@H]21)[C@@H](C)O)C(=O)N[C@H](C(=O)N[C@@H](CCCCN)C(=O)N[C@H](C(=O)O)C(C)C)[C@@H](C)O [PTEN_13] ({X1-Suc}-PFDEDQHTQITKV-OH)")
0.811
>>> value("CC[C@H](C)[C@H](NC(=O)[C@H](CCC(N)=O)NC(=O)[C@@H](NC(=O)[C@H](Cc1c[nH]cn1)NC(=O)[C@H](CCC(N)=O)NC(=O)[C@H](CC(=O)O)NC(=O)[C@H](CCC(=O)O)NC(=O)[C@H](CC(=O)O)NC(=O)CCC(=O)NCCCOCCOCCOCCCNC(=O)CCCC[C@@H]1SC[C@@H]2NC(=O)N[C@@H]21)[C@@H](C)O)C(=O)N[C@H](C(=O)N[C@@H](CCCCN)C(=O)N[C@H](C(=O)O)C(C)C)[C@@H](C)O")
0.658

Turning now to a further record.
# BI measured on 266 human PDZ domains (PDZome) for item "CC[C@H](C)[C@H](NC(=O)[C@H](CCC(N)=O)NC(=O)[C@@H](NC(=O)[C@H](Cc1c[nH]cn1)NC(=O)[C@H](CCC(N)=O)NC(=O)[C@H](CC(=O)O)NC(=O)[C@H](CCC(=O)O)NC(=O)[C@H](CC(=O)O)NC(=O)CCC(=O)NCCCOCCOCCOCCCNC(=O)CCCC[C@@H]1SC[C@@H]2NC(=O)N[C@@H]21)[C@@H](C)O)C(=O)N[C@H](C(=O)N[C@@H](CCCCNC(C)=O)C(=O)N[C@H](C(=O)O)C(C)C)[C@@H](C)O" = 0.901

###

# Tested on: 266 human PDZ domains (PDZome)
# method: Holdup assay (chromatographic retention, PDZome-binding profile, BI)
# Parameters: key: binding intensity: 0.00 = no binding, 1.00 = maximal binding
# study-conditions: PDZ domain PDZRN4-2
*1 amine or outer side, *2 acyl side, *3 side chain or, on linkers, in order; H or OH if unused. Where a SMILES comes first, the peptide text is derived from it. The star is where a group is joined. X1 = O=C(CCCC[C@@H]1SC[C@@H]2NC(=O)N[C@@H]21)NCCCOCCOCCOCCCN*; Suc = O=C(CCC(=O)[*:2])[*:1]
The reader will find reported BI values listed item by item below.
A bare number is all that is needed in reply.

>>> value("CC[C@H](C)[C@H](NC(=O)[C@H](CCC(N)=O)NC(=O)[C@@H](NC(=O)[C@H](Cc1c[nH]cn1)NC(=O)[C@H](CCC(N)=O)NC(=O)[C@H](CC(=O)O)NC(=O)[C@H](CCC(=O)O)NC(=O)[C@H](CC(=O)O)NC(=O)CCC(=O)NCCCOCCOCCOCCCNC(=O)CCCC[C@@H]1SC[C@@H]2NC(=O)N[C@@H]21)[C@@H](C)O)C(=O)N[C@H](C(=O)N[C@@H](CCCCNC(C)=O)C(=O)N[C@H](C(=O)O)C(C)C)[C@@H](C)O [PTEN_Ac]")
0.099
>>> value("CC[C@H](C)[C@H](NC(=O)[C@H](CCC(N)=O)NC(=O)[C@@H](NC(=O)[C@H](Cc1c[nH]cn1)NC(=O)[C@H](CCC(N)=O)NC(=O)[C@H](CC(=O)O)NC(=O)[C@H](CCC(=O)O)NC(=O)[C@H](CC(=O)O)NC(=O)CCC(=O)NCCCOCCOCCOCCCNC(=O)CCCC[C@@H]1SC[C@@H]2NC(=O)N[C@@H]21)[C@@H](C)O)C(=O)N[C@H](C(=O)N[C@@H](CCCCN)C(=O)N[C@H](C(=O)O)C(C)C)[C@@H](C)O [PTEN_11]")
0.005

Turning now to a further record.
# BI measured on 266 human PDZ domains (PDZome) for item CC[C@H](C)[C@H](NC(=O)[C@H](CCC(N)=O)NC(=O)[C@@H](NC(=O)[C@H](Cc1c[nH]cn1)NC(=O)[C@H](CCC(N)=O)NC(=O)[C@H](CC(=O)O)NC(=O)[C@H](CCC(=O)O)NC(=O)[C@H](CC(=O)O)NC(=O)[C@H](Cc1ccccc1)NC(=O)[C@@H]1CCCN1C(=O)CCC(=O)NCCCOCCOCCOCCCNC(=O)CCCC[C@@H]1SC[C@@H]2NC(=O)N[C@@H]21)[C@@H](C)O)C(=O)N[C@H](C(=O)N[C@@H](CCCCN)C(=O)N[C@H](C(=O)O)C(C)C)[C@@H](C)O [PTEN_13] ({X1-Suc}-PFDEDQHTQITKV-OH) = -0.019

Value source: paper PMC7774954
